assay: Half life of the compound in human plasma by LC-MS/MS analysis; type: ADME, cell-free
Measured half-life accompanies every entry in the list below.
Provide only the numeric value, understood in h.

Qu. Which half-life is reported for this compound? C/C(=N\Nc1nc2ccccc2n1C)c1ccccn1
Ans. 2.17

Qu. Which half-life is reported for this compound? CCN(CC)CCOC(=O)c1ccc(N)cc1
Ans. 0.0303

Qu. Which half-life is reported for this compound? C/C(=N\Nc1nc2ccccc2n1C1CN(C2CCN(c3cccc4c3C(=O)N(C3CCC(=O)NC3=O)C4=O)CC2)C1)c1ccccn1 (stereo not drawn)
Ans. 35.6

###

experiment: Half life in human liver microsomes in presence of NADPH by LC-MS/MS analysis; type: ADME, Microsome
value type: half-life

Qu. Which half-life is reported for this compound? C/C(=N\Nc1nc2ccccc2n1C1CN(C2CCN(c3cccc4c3C(=O)N(C3CCC(=O)NC3=O)C4=O)CC2)C1)c1ccccn1 (stereo unspecified)
Ans. 8.46 min

###

assay: Half life in Balb/c mouse at 4 mg/kg, ip by LC-MS/MS analysis; assay type: ADME, organism-based; conditions: in vivo
value type: half-life (h)
Provide only the numeric value, understood in h.

Qu. Which half-life is reported for this compound? C/C(=N\Nc1nc2ccccc2n1C1CN(C2CCN(c3cccc4c3C(=O)N(C3CCC(=O)NC3=O)C4=O)CC2)C1)c1ccccn1 (stereo unspecified)
Ans. 3.46

###

Measured pIC50 accompanies every entry in the list below.
assay: Antiproliferative activity against tamoxifen-resistant human LCC2 cells assessed as inhibition of cell growth by CCK8 assay; type: functional, cell-based
pIC50 is a log-scale quantity: -log10 of the concentration expressed in molar.

Below, each entry is followed by its recorded pIC50 result.
{"columns": ["molecule", "reported measurement"],
 "data": [
  ["C/C(=N\\Nc1nc2ccccc2n1CC1CCN(CC(=O)N[C@H](C(=O)N2C[C@H](O)C[C@H]2C(=O)N[C@@H](C)c2ccc(-c3scnc3C)cc2)C(C)(C)C)CC1)c1ccccn1", 5.56],
  ["C[C@]12CC[C@@H]3c4ccc(O)cc4C[C@@H](CCCCCCCCC[S+]([O-])CCCC(F)(F)C(F)(F)F)[C@H]3[C@@H]1CC[C@@H]2O (stereo partly specified)", 6.33],
  ["C/C(=N\\Nc1nc2ccccc2n1CCNC(=O)CCCCCN[C@H](C(=O)N1C[C@H](O)C[C@H]1C(=O)N[C@@H](C)c1ccc(-c2scnc2C)cc1)C(C)(C)C)c1ccccn1", 5.15],
  ["C/C(=N\\Nc1nc2ccccc2n1C1CN(C(=O)C2CN(c3cccc4c3C(=O)N(C3CCC(=O)NC3=O)C4=O)C2)C1)c1ccccn1 (stereo unspecified)", 4.83]
]}

Qu. Which pIC50 is reported for this molecule? C/C(=N\Nc1nc2ccccc2n1CCNC(=O)CCCCCCN[C@H](C(=O)N1C[C@H](O)C[C@H]1C(=O)N[C@@H](C)c1ccc(-c2scnc2C)cc1)C(C)(C)C)c1ccccn1
Ans. 5.43

Qu. Which pIC50 is reported for this molecule? C/C(=N\Nc1nc2ccccc2n1C1CN(C(=O)C2CCN(c3cccc4c3C(=O)N(C3CCC(=O)NC3=O)C4=O)CC2)C1)c1ccccn1 (stereo unspecified)
Ans. 5.23

###

target: von Hippel-Lindau disease tumor suppressor/Nuclear receptor coactivator 3 (Homo sapiens) (UniProt Q9Y6Q9+P40337); test: PROTAC activity at VHL/SRC-3 in human MCF7 cells assessed as induction of […] degradation at 1 uM incubated for 24 hrs by immunoblot analysis relative to control; format: cell-based
Sequence (P40337 whole entry, looked up): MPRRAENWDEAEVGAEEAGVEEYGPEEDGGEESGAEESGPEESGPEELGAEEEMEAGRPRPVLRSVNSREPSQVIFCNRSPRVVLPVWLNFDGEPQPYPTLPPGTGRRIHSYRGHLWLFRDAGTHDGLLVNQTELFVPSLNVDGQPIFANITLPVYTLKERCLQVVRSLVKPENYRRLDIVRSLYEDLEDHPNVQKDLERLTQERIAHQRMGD
Sequence (Q9Y6Q9 whole entry, looked up): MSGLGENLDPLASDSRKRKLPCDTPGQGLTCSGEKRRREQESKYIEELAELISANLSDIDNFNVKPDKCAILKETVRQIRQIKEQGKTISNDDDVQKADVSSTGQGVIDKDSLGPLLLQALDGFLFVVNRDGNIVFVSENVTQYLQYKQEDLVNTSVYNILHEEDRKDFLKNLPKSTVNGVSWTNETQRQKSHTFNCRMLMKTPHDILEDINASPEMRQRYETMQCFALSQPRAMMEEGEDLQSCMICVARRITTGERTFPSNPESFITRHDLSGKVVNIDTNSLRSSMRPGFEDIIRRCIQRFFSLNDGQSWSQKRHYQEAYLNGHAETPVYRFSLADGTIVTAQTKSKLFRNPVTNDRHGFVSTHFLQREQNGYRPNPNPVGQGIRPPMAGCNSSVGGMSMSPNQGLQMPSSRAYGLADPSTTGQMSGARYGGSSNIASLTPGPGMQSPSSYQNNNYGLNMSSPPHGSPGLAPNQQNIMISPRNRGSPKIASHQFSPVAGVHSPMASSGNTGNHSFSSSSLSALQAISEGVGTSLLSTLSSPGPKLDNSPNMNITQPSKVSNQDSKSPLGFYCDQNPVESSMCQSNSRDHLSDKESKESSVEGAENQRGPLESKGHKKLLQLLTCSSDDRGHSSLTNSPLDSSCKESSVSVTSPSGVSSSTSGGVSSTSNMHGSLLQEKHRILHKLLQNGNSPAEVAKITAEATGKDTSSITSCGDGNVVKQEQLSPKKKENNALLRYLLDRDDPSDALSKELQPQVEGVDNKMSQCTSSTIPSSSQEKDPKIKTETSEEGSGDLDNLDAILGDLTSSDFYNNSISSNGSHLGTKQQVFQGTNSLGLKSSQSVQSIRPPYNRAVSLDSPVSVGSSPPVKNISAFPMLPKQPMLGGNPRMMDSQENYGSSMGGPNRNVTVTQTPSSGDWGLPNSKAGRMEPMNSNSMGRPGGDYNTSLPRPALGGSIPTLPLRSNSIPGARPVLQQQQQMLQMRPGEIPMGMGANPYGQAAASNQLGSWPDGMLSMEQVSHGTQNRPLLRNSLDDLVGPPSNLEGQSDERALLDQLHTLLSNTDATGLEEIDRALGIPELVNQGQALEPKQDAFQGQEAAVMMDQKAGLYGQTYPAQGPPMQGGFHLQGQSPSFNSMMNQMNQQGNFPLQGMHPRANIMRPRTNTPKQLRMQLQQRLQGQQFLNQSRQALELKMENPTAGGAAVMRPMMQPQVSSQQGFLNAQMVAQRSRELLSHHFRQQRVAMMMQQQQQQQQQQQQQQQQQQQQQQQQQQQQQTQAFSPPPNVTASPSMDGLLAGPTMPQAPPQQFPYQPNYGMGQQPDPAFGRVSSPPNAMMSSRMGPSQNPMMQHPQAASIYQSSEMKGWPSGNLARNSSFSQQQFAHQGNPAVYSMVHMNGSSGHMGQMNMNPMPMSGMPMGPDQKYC
value type: Activity (%)
Provide only the numeric value, understood in %.

Below, each entry is followed by its recorded Activity result.
{"columns": ["compound structure", "Activity / %"],
 "data": [
  ["C/C(=N\\Nc1nc2ccccc2n1CCNC(=O)CCCCCCCCN[C@H](C(=O)N1C[C@H](O)C[C@H]1C(=O)N[C@@H](C)c1ccc(-c2scnc2C)cc1)C(C)(C)C)c1ccccn1", 65],
  ["C/C(=N\\Nc1nc2ccccc2n1CCNC(=O)CCCCCCCCCCN[C@H](C(=O)N1C[C@H](O)C[C@H]1C(=O)N[C@@H](C)c1ccc(-c2scnc2C)cc1)C(C)(C)C)c1ccccn1", 62],
  ["C/C(=N\\Nc1nc2ccccc2n1CCNC(=O)CCCCCCCN[C@H](C(=O)N1C[C@H](O)C[C@H]1C(=O)N[C@@H](C)c1ccc(-c2scnc2C)cc1)C(C)(C)C)c1ccccn1", 38]
]}

# context switch: different molecule, same Activity
Qu. Which Activity is reported for this molecule? C/C(=N\Nc1nc2ccccc2n1CCNC(=O)CCCCCCCCCN[C@H](C(=O)N1C[C@H](O)C[C@H]1C(=O)N[C@@H](C)c1ccc(-c2scnc2C)cc1)C(C)(C)C)c1ccccn1
Ans. 61
